target: UniProt P23458
pIC50: −log10 of the molar value.
measured.quantity: pIC50

Before answering, review these 5 worked examples.
smiles.data: CCS(=O)(=O)N1CC(CC#N)(n2cc(-c3nc(Nc4cnn(C)c4)nc4cc(Cl)sc34)cn2)C1
result: < 6.00

smiles.data: CCS(=O)(=O)N1CC(CC#N)(n2cc(-c3nc(Nc4cn[nH]c4)nc4ccsc34)cn2)C1
result: > 7.30

smiles.data: CCS(=O)(=O)N1CC(CC#N)(n2cc(-c3nc(Nc4cccnc4)nc4ccsc34)cn2)C1
result: > 7.30

smiles.data: CCS(=O)(=O)N1CC(CC#N)(n2cc(-c3nc(Nc4cnn(CCC#N)c4)nc4ccsc34)cn2)C1
result: > 7.30

smiles.data: CCS(=O)(=O)N1CC(CC#N)(n2cc(-c3nc(Nc4cnn(CCCC(=O)N(C)C)c4)nc4ccsc34)cn2)C1
result: > 7.30

Q: Request body: readout pIC50, system UniProt P23458, query CCS(=O)(=O)N1CC(CC#N)(n2cc(-c3nc(Nc4ccc5[nH]cnc5c4)nc4ccsc34)cn2)C1 . Return the value.
Result: > 7.30

Q: Report pIC50 for CCS(=O)(=O)N1CC(CC#N)(n2cc(-c3nc(Nc4cnn(CCCN5CCN(C)CC5)c4)nc4ccsc34)cn2)C1 tested on UniProt P23458.
Result: 6.30 to 7.30

Q: Find the measured pIC50: item CCS(=O)(=O)N1CC(CC#N)(n2cc(-c3nc(Nc4cnn(CCN5CCOCC5)c4)nc4ccsc34)cn2)C1 , target or system UniProt P23458.
Result: 6.30 to 7.30

====

pIC50 for assorted molecules
target: JAK1 (Homo sapiens)
Sequence (P23458 whole entry, species assumed): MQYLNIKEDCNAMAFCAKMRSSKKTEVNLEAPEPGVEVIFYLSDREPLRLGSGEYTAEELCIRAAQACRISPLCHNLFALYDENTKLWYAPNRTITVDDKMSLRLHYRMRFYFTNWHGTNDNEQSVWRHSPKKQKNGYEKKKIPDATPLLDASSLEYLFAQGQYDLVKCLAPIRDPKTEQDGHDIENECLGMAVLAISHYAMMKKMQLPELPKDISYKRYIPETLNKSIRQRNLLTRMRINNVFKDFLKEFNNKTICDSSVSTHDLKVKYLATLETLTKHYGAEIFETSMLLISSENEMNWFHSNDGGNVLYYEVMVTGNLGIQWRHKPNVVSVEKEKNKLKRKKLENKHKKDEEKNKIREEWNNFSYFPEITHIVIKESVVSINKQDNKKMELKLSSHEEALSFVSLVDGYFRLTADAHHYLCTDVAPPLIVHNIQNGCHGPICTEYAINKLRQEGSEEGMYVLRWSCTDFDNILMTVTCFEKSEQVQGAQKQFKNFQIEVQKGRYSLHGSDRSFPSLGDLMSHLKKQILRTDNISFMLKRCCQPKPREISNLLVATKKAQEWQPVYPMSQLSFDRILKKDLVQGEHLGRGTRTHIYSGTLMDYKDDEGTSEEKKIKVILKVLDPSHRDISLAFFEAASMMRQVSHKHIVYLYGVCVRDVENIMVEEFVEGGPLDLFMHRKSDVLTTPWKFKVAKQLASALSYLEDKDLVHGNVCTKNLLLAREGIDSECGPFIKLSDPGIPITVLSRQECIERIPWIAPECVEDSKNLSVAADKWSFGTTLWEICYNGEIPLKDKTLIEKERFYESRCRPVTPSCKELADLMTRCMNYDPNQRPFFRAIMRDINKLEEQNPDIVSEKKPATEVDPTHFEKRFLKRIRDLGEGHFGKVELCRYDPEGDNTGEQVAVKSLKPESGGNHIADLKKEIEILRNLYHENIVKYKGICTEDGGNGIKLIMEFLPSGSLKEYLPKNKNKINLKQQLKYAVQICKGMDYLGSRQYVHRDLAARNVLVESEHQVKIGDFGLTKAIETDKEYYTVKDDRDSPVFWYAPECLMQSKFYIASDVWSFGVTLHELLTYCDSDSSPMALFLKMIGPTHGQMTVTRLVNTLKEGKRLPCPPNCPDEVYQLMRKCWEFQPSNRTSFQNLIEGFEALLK
pIC50: −log10 of the molar value.

smiles.data: C[C@H](O)Cn1cc(Nc2nc(-c3cnn(C4(CC#N)COC4)c3)c3sccc3n2)cn1
pIC50: 6.30 to 7.30
--
smiles.data: CCS(=O)(=O)N1CC(CC#N)(n2cc(-c3nc(Nc4cnn(CC(F)(F)F)c4)nc4ccsc34)cn2)C1
pIC50: > 7.30
--
smiles.data: CCS(=O)(=O)N1CC(CC#N)(n2cc(-c3nc(Nc4cncnc4)nc4ccsc34)cn2)C1
pIC50: 6.00 to 6.30

Q: For JAK1 (Homo sapiens), provide pIC50 of CC(C)(C)NS(=O)(=O)c1ccc(-c2nc(Nc3ccc(N4CCOCC4)cc3)nc3ccsc23)cc1 please.
Result: < 6.00

Q: Give recorded pIC50 with JAK1 (Homo sapiens) for the following molecule: N#CCC1(n2cc(-c3nc(Nc4cnn(C5CC5)c4)nc4ccsc34)cn2)CC1
Result: 6.30 to 7.30

Q: State its pIC50 on JAK1 (Homo sapiens): CCS(=O)(=O)N1CC(CC#N)(n2cc(-c3nc(Nc4ccccc4)nc4ccoc34)cn2)C1
Result: 6.30 to 7.30

Q: Param readout = pIC50; param system = JAK1 (Homo sapiens); param query = C[C@@H](CO)n1cc(Nc2nc(-c3cnn(C4(CC#N)COC4)c3)c3sccc3n2)cn1 ; response: value
Result: > 7.30

====

Overview of recorded pIC50 for various compounds
target: JAK3 (Homo sapiens); test: JAK 3 enzymatic inhibitory activity IC50 assay (Caliper conversion rate); assay type: biochemical; details: Km ATP, 28° C., 1 hour; read-out: JAK 3 enzymatic inhibitory activity IC50
Sequence (P52333 whole entry, species assumed): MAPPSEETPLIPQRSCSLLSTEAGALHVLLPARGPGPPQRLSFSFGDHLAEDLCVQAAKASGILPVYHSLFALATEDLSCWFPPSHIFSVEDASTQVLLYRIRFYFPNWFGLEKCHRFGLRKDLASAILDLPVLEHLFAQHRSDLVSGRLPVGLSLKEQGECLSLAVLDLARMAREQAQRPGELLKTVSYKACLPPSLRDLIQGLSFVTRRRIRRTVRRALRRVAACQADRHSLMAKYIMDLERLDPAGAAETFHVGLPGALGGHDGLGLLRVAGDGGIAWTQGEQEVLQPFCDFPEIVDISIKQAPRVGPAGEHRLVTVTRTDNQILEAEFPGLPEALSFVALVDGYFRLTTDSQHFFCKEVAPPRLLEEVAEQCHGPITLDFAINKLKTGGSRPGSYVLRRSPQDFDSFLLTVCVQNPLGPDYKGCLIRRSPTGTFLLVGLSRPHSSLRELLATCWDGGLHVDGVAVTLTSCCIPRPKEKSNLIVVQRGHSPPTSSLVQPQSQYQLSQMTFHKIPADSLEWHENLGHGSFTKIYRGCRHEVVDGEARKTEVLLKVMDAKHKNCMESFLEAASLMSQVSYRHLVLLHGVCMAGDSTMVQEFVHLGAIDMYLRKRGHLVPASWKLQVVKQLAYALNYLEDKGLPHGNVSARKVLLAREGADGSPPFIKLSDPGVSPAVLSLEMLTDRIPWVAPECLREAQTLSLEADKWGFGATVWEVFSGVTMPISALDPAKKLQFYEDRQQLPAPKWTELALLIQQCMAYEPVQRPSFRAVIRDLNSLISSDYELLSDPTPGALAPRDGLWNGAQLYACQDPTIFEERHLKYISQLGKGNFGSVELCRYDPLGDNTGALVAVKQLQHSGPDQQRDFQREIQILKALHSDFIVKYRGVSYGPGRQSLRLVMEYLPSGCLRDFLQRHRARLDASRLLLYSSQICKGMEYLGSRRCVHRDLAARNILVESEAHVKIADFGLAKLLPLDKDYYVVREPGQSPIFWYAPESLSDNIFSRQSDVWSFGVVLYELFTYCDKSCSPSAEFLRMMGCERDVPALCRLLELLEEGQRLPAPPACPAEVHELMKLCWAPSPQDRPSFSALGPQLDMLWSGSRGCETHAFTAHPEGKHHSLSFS
pIC50: −log10 of the molar value.

compound: CCS(=O)(=O)N1CC(CC#N)(n2cc(-c3nc(Nc4ccccc4)nc4ccoc34)cn2)C1 [Compound T-30]
tested.system: JAK3 (Homo sapiens)
measured.quantity: pIC50
result: 6.30 to 7.30
--
compound: CCS(=O)(=O)N1CC(CC#N)(n2cc(-c3nc(Nc4ccc(-n5cncn5)cc4)nc4ccsc34)cn2)C1 [Compound T-10]
tested.system: JAK3 (Homo sapiens)
measured.quantity: pIC50
result: 6.30 to 7.30
--
compound: CCS(=O)(=O)N1CC(CC#N)(n2cc(-c3nc(Nc4cnn(CCCN5CCOCC5)c4)nc4ccsc34)cn2)C1 [Compound T-60]
tested.system: JAK3 (Homo sapiens)
measured.quantity: pIC50
result: > 7.30
--
compound: CCS(=O)(=O)N1CC(CC#N)(n2cc(-c3nc(Nc4cnn(CCCc5nn[nH]n5)c4)nc4ccsc34)cn2)C1 [Compound T-61]
tested.system: JAK3 (Homo sapiens)
measured.quantity: pIC50
result: > 7.30

Q: What does the record list as pIC50 for CCS(=O)(=O)N1CC(CC#N)(n2cc(-c3nc(Nc4cc(C)[nH]n4)nc4ccsc34)cn2)C1 [Compound T-72] ?
Result: > 7.30

Q: Using the record for C[C@@H](O)Cn1cc(Nc2nc(-c3cnn(C4(CC#N)COC4)c3)c3sccc3n2)cn1 [Compound T-80] , report its pIC50.
Result: 6.30 to 7.30

Q: Would you kindly share the measured pIC50 for CCS(=O)(=O)N1CC(CC#N)(n2cc(-c3nc(Nc4cnn(C)c4)nc4ccsc34)cn2)C1 [Compound T-15] ?
Result: 6.30 to 7.30

Q: Given Cn1cc(Nc2nc(-c3cnn(C4(CC#N)COC4)c3)c3sccc3n2)cn1 [Compound T-43] , state its recorded pIC50.
Result: 6.30 to 7.30

Q: Tell me the measured pIC50 of CCS(=O)(=O)N1CC(CC#N)(n2cc(-c3nc(Nc4ccccc4)nc4cc(C)sc34)cn2)C1 [Compound T-23] , please.
Result: < 6.00
